Assay: physchem
Conditions: phosphate buffer, pH 7.2
measurement-name: solubility thermodynamic at 24 h

Solved cases below.
structure-string: Cn1c(-c2ccccn2)c(C2CCCCC2)c2ccc(C(=O)NC(C)(C)C(=O)Nc3ccc(-c4ccc(C(N)=O)o4)cc3)cc21
measurement-name: solubility thermodynamic at 24 h
reported-value: < 0.1 µg/mL
--
structure-string: Cn1c(-c2ccccn2)c(C2CCCCC2)c2ccc(C(=O)NC3(C(=O)Nc4ccc(S(N)(=O)=O)cc4)CCC3)cc21
measurement-name: solubility thermodynamic at 24 h
reported-value: < 0.1 µg/mL

[Q] Give the measured solubility thermodynamic at 24 h of `Cn1c(-c2ccccn2)c(C2CCCCC2)c2ccc(C(=O)NC(C)(C)C(=O)Nc3ccc(-c4nc(C(N)=O)cs4)cc3)cc21` .
[A] < 0.1 µg/mL
